Can you tell me B2M knockout efficiency in LSCs after nucleofection for the items I'm about to list?
Test system: B2M
Assay: sgRNA screening for B2M knockout in LSCs (nucleofection, FACS)
Type: cell-based, human
Details: Cas9 protein SEQ ID NO: 106, LSCs at passage 3, FACS after around 3 days
Answers are plain numbers, in %.

Quick request: B2M knockout efficiency in LSCs after nucleofection for each listed item, please.
1. 4-CR004366: gRNA targeting human B2M; targeting domain SEQ ID NO: 111; sgRNA SEQ ID NO: 162; from Dharmacon (nucleic acid, listed as RNA, chemistry not given here, gRNA targeting human B2M; from Dharmacon) guide: CAGUAAGUCAACUUCAAUGUGUUUUAGAGCUAGAAAUAGCAAGUUAAAAUAAGGCUAGUCCGUUAUCAACUUGAAAAAGUGGCACCGAGUCGGUGCUUUU
2. CR000442: gRNA targeting human B2M; targeting domain SEQ ID NO: 134; sgRNA SEQ ID NO: 171 (nucleic acid, listed as RNA, chemistry not given here) guide: GGCCACGGAGCGAGACAUCUGUUUUAGAGCUAGAAAUAGCAAGUUAAAAUAAGGCUAGUCCGUUAUCAACUUGAAAAAGUGGCACCGAGUCGGUGCUUUU
3. CR000455: gRNA targeting human B2M; targeting domain SEQ ID NO: 138; sgRNA SEQ ID NO: 175 (nucleic acid, listed as RNA, chemistry not given here) guide: UUACCCCACUUAACUAUCUUGUUUUAGAGCUAGAAAUAGCAAGUUAAAAUAAGGCUAGUCCGUUAUCAACUUGAAAAAGUGGCACCGAGUCGGUGCUUUU
4. 6-HEYJA000001: gRNA targeting human B2M; targeting domain SEQ ID NO: 113; sgRNA SEQ ID NO: 164 (nucleic acid, listed as RNA, chemistry not given here) guide: GGCCGAGAUGUCUCGCUCCGGUUUUAGAGCUAGAAAUAGCAAGUUAAAAUAAGGCUAGUCCGUUAUCAACUUGAAAAAGUGGCACCGAGUCGGUGCUUUU
5. CR000456: gRNA targeting human B2M; targeting domain SEQ ID NO: 139; sgRNA SEQ ID NO: 176 (nucleic acid, listed as RNA, chemistry not given here) guide: CUUACCCCACUUAACUAUCUGUUUUAGAGCUAGAAAUAGCAAGUUAAAAUAAGGCUAGUCCGUUAUCAACUUGAAAAAGUGGCACCGAGUCGGUGCUUUU

22
62
24
33
3
